# reported melting point; entries follow
quantityMeasured: melting point

molecule=Oc1ccccc1Nc1nccc(-c2cccnc2)n1 assayresult="166 to 169 °C"
molecule=CSc1nnc2n1C=C(C)c1ccccc1C2 assayresult="129 to 130 °C"
molecule=CCCCCCCCCCCCCCc1ccc(OC)cc1 assayresult="38 °C"
molecule=NCc1[nH]c2ccc(Cl)cc2c1-c1c(F)cccc1F assayresult="199 to 200 °C"
molecule="Nc1ccn(C2CC(N)C(CO)O2)c(=O)n1 (stereo unspecified)" assayresult="207 °C"
molecule="Cc1ccc2c(c1)OC(C(F)(F)F)C(C(=O)O)=C2 (stereo unspecified)" assayresult="202 to 203 °C"
molecule=CCN(CC)c1ccncc1NC(=S)NC1CCCCC1 assayresult="119 to 121 °C"
molecule=N#Cc1ccc(-c2ccc(-c3ccc(C#N)cn3)o2)nc1 assayresult="311 to 312 °C"
molecule=COc1ccc(/C=C/C(=O)/C=C/c2ccc(C(F)(F)F)cc2)cc1 assayresult="144 to 146 °C"
molecule=CCOC(=O)c1csc2cc(O)ccc12 assayresult="128 to 129 °C"
molecule=c1csc(-c2ccc3cc(-c4cccs4)ccc3c2)c1 assayresult="256 to 258 °C"

###

Recorded melting point for the following compounds
quantityMeasured: melting point

compound=Cc1ccc(N=C2NCCN2)cc1NS(C)(=O)=O quantitymeasured="melting point" assayresult="124 to 126 °C"
compound=CCOC(=O)c1ccncn1 quantitymeasured="melting point" assayresult="36.8 °C"
compound=CNC(=NCCSCc1nc[nH]c1C)S(=O)(=O)O quantitymeasured="melting point" assayresult="162 to 164 °C"
compound=CCCc1sc2nc(CN(CC)CC)c(C(=O)OCC)c(-c3ccc(Cl)cc3)c2c1C quantitymeasured="melting point" assayresult="82 to 83 °C"
compound="CC1Nc2ccc(NC(=O)c3ccc(-c4ccccc4)cc3)cc2N1C (configuration not stated)" quantitymeasured="melting point" assayresult="270 °C"
compound=CCCCCCCCCCCCCCCCCCN(CCCCCCCCCCCCCCCCCC)CCCN(CC(=O)OC)CC(=O)OC quantitymeasured="melting point" assayresult="75 to 77 °C"
compound=CC(C)(C)OC(=O)Nc1ccc(F)c(F)c1C(=O)O quantitymeasured="melting point" assayresult="160 °C"
compound=COc1cc(C=O)ccn1 quantitymeasured="melting point" assayresult="33 to 35 °C"
compound=Cn1c(C(F)(F)F)cc(=O)n(-c2ccc3snc(N4CCOCC4)c3c2)c1=O quantitymeasured="melting point" assayresult="200 to 205 °C"
compound=N=C(N)Nc1cc(Cl)ccc1N1CCOCC1 quantitymeasured="melting point" assayresult="135 to 138 °C"
compound=CCCc1ccc(C(=O)Nc2ccc3c(c2)CCC3=O)cc1 quantitymeasured="melting point" assayresult="181 to 184 °C"
compound=O=C(O)c1cn(-c2ccc(F)cc2F)c2c(F)c(N3Cc4ccc(Br)cc4C3)c(F)cc2c1=O quantitymeasured="melting point" assayresult="251 to 257 °C"

###

quantityMeasured: melting point

compound=CCOC(=O)/C=C/c1cnn(C)c1-c1cccnc1 assayresult="159 to 160 °C"
compound=CCCCc1nn(Cc2ccc(-c3ccccc3-c3nnn[nH]3)cc2)c(=O)n1Cc1ccc(-c2ccccc2-c2nnn[nH]2)cc1 assayresult="150 to 151 °C"
compound=OCc1c(Br)c(Br)c(Br)c(CO)c1Br assayresult="248 to 252 °C"
compound="NCC1Cc2cc(Cl)c3[nH]c(=O)ccc3c2O1 (stereo unspecified)" assayresult="> 300 °C"
compound=O=C(c1cc(N2CCCCC2)ccn1)N(O)CCCc1ccccc1 assayresult="125 to 130 °C"
compound=O=c1nc(-c2ccc3c(c2)OCCO3)c2ccc3c(c2[nH]1)OCO3 assayresult="> 300 °C"
compound=CNc1nc(-c2cccc(-c3cncc4ccccc34)c2)c2cc(OC)c(OC)cc2n1 assayresult="181 to 183 °C"
compound=COC(=O)CCCCCCCCCCCCCCCCCCCCCN1C(=O)c2ccccc2C1=O assayresult="88.5 to 90.5 °C"
compound=CC(=O)S[C@@H](CC1CCCCC1)C(=O)O assayresult="159 to 161 °C"
compound=CC(C)(C)c1ccc(OC2CN(C(c3ccccc3)c3ccccc3)C2)cc1 assayresult="126 to 127 °C"
compound=O=c1c2c(Cl)cccc2nc(CSc2ncnc3[nH]cnc23)n1-c1ccccc1F assayresult="244 °C"
compound=CC1(C)Cc2c(Cl)c(N)cc(C(=O)O)c2O1 assayresult="185 to 187 °C"
compound=Cc1nc(N)nc(N)c1-c1cc(Cl)ccc1Cl assayresult="226 to 228 °C"
compound=C[C@H](O)CNc1nc(Oc2ccc(F)cc2F)cc2[nH]nc(-c3ccccc3Cl)c12 assayresult="171 to 172 °C"
compound=Nc1c(NCCCOc2cccc(C=O)c2)c(=O)c1=O assayresult="203 to 206 °C"
compound=O=Cc1ncn2cc(Br)sc12 assayresult="200 to 201 °C"
compound=Cc1nc(-c2nn(Cc3ccccc3)c3ccccc23)oc1CO assayresult="127 to 129 °C"
compound=CC(=O)C1(c2ccccc2)CCN(C(=O)OC(C)(C)C)CC1 assayresult="91 to 92 °C"
compound="CCN1C(=O)C2Cc3c([nH]c4ccccc34)C(c3ccc(N(C)C)cc3)N2C1=O (stereo unspecified)" assayresult="262 to 265 °C"
compound="CC1(CSc2ccc(Cl)cc2)COC2(CCCCCCCCCCC2)OO1 (stereo unspecified)" assayresult="93 to 94 °C"
compound="O=C1CC(c2ccccc2)c2cccc(CCN3CCN(c4nsc5ccccc45)CC3)c2N1 (stereo unspecified)" assayresult="227 °C"
compound=O=[N+]([O-])c1ccc(Cl)cc1OCC=Cc1ccccc1 assayresult="74.5 to 75.5 °C"
compound="COc1cc(C2CN(c3cc4c(cc3F)ncc3c4c(=O)c(C(=O)O)cn3C)CCN2)ccc1OCc1ccccc1 (stereo unspecified)" assayresult="280 °C"
compound=CCOC(=O)Cc1c(C(=O)c2ccc(Cl)cc2)[nH]c2cc(Cl)ccc12 assayresult="186 to 188 °C"
compound=O=[N+]([O-])c1ccc2c(ccn2Cc2ccccc2)c1 assayresult="102 to 104 °C"
compound=Cc1ccc(C(=O)c2ccccc2Cl)n1N assayresult="84 to 85 °C"
